PROTOCOL DETAILS: Drug level in rabbit kidney at 0.5 to 2 mg/kg/day, iv for 8 days measured 30 mins after last dose
Type: ADME, organism-based, Oryctolagus cuniculus
Parameters: route intravenous
CONDITION DETAILS: read-out: Drug uptake
Starred links: 1 amine or outer side, 2 acyl side, 3 side chain; linkers in the order of their positions; H or OH if unused. Positions of bridges follow the written chain, without caps; N, C: chain ends. Non-standard residues stand in square brackets, D forms with d. Residues, ends and D or L forms follow the SMILES beside them. *: point of attachment. hTyr(3S-OH,4S-OH,3'-OSO3H) = N[C@H](C(=O)O)[C@H](O)[C@@H](O)c1ccc(O)c(OS(=O)(=O)O)c1; Orn(4R-OH,5R-OH) = O=C([C@H](C[C@@H](O)[C@@H](O)N[*:3])N[*:1])[*:2]; Pro(3S-OH,4S-Me) = C[C@H]1CN[C@H](C(=O)O)[C@H]1O; X1 = CCCCCOc1ccc(-c2cc(-c3ccc(C(=O)*)cc3)no2)cc1; Gln(3R-OH) = NC(=O)C[C@@H](O)[C@H](N)C(=O)O; Hyp = O=C(O)[C@@H]1C[C@@H](O)CN1
READOUT LABEL: concentration at 0.5 h (ng/g)
Field: numeric (ng/g). Do not append units.

Entry under test: CCCCCOc1ccc(-c2cc(-c3ccc(C(=O)N[C@H]4C[C@@H](O)[C@@H](O)NC(=O)[C@@H]5[C@@H](O)[C@@H](C)CN5C(=O)[C@H]([C@H](O)CC(N)=O)NC(=O)[C@H]([C@H](O)[C@@H](O)c5ccc(O)c(OS(=O)(=O)O)c5)NC(=O)[C@@H]5C[C@@H](O)CN5C(=O)[C@H]([C@@H](C)O)NC4=O)cc3)no2)cc1 [MICAFUNGIN] (X1-[Orn(4R-OH,5R-OH)]T[Hyp][hTyr(3S-OH,4S-OH,3'-OSO3H)][Gln(3R-OH)][Pro(3S-OH,4S-Me)]; lactam 1-C) . Its concentration at 0.5 h was 1400

----------
PROTOCOL DETAILS: Drug level in pancreatic pseudocyst fluid of patient with invasive candidiasis measured 24 hrs post last dose by HPLC
Type: ADME
CONDITION DETAILS: human, read-out: Drug uptake
Starred links: 1 amine or outer side, 2 acyl side, 3 side chain; linkers in the order of their positions; H or OH if unused. Positions of bridges follow the written chain, without caps; N, C: chain ends. Non-standard residues stand in square brackets, D forms with d. Residues, ends and D or L forms follow the SMILES beside them. *: point of attachment. hTyr(3S-OH,4S-OH,3'-OSO3H) = N[C@H](C(=O)O)[C@H](O)[C@@H](O)c1ccc(O)c(OS(=O)(=O)O)c1; Orn(4R-OH,5R-OH) = O=C([C@H](C[C@@H](O)[C@@H](O)N[*:3])N[*:1])[*:2]; Pro(3S-OH,4S-Me) = C[C@H]1CN[C@H](C(=O)O)[C@H]1O; X1 = CCCCCOc1ccc(-c2cc(-c3ccc(C(=O)*)cc3)no2)cc1; Gln(3R-OH) = NC(=O)C[C@@H](O)[C@H](N)C(=O)O; Hyp = O=C(O)[C@@H]1C[C@@H](O)CN1
READOUT LABEL: concentration at 24 h (ng/mL)
Field: numeric (ng/mL). Do not append units.

Entry under test: CCCCCOc1ccc(-c2cc(-c3ccc(C(=O)N[C@H]4C[C@@H](O)[C@@H](O)NC(=O)[C@@H]5[C@@H](O)[C@@H](C)CN5C(=O)[C@H]([C@H](O)CC(N)=O)NC(=O)[C@H]([C@H](O)[C@@H](O)c5ccc(O)c(OS(=O)(=O)O)c5)NC(=O)[C@@H]5C[C@@H](O)CN5C(=O)[C@H]([C@@H](C)O)NC4=O)cc3)no2)cc1 [MICAFUNGIN] (X1-[Orn(4R-OH,5R-OH)]T[Hyp][hTyr(3S-OH,4S-OH,3'-OSO3H)][Gln(3R-OH)][Pro(3S-OH,4S-Me)]; lactam 1-C) . Its concentration at 24 h was 380
